tested on: CCRF-CEM
hey, just use Condition met if measured GI50 is less than 800 nM, otherwise Condition not met

>  <molecule>
Cc1cc2nc3c4cc(N)ccc4n(CCN(C)C)c3nc2cc1C

>  <target_or_system>
CCRF-CEM

>  <label_value>
Condition not met

$$$$
>  <molecule>
Cc1cc2nc3c4ccccc4n(CCN(C)C)c3nc2cc1C [B220, reference compound]

>  <target_or_system>
CCRF-CEM

>  <label_value>
Condition not met

$$$$
>  <molecule>
Cc1cc2nc3c4cc([N+](=O)[O-])ccc4n(CCN(C)C)c3nc2cc1C

>  <target_or_system>
CCRF-CEM

>  <label_value>
Condition met

$$$$
>  <molecule>
Cc1cc2nc3c4cc(O)ccc4n(CCN(C)C)c3nc2cc1C

>  <target_or_system>
CCRF-CEM

>  <label_value>
Condition met

$$$$

###

test system: CAKI-1; test: Human tumor cell line growth assay (SRB); type: cell-based; settings: Renal, CAKI-1, 48 h, read-out: LC50 (the source's name)
reported_metric: CC50 (µM)

>  <compound>
Cc1cc2nc3c4cc(O)ccc4n(CCN(C)C)c3nc2cc1C

>  <reported_metric>
CC50

>  <uom>
µM

>  <bound_type>
=

>  <reported>
5.31

$$$$
>  <compound>
Cc1cc2nc3c4cc([N+](=O)[O-])ccc4n(CCN(C)C)c3nc2cc1C

>  <reported_metric>
CC50

>  <uom>
µM

>  <bound_type>
=

>  <reported>
7.48

$$$$
>  <compound>
Cc1cc2nc3c4ccccc4n(CCN(C)C)c3nc2cc1C [B220, reference compound]

>  <reported_metric>
CC50

>  <uom>
µM

>  <bound_type>
>

>  <reported>
100

$$$$
>  <compound>
COc1ccc2c(c1)c1nc3cc(C)c(C)cc3nc1n2CCN(C)C

>  <reported_metric>
CC50

>  <uom>
µM

>  <bound_type>
=

>  <reported>
4.93

$$$$
>  <compound>
Cc1cc2nc3c4cc(N)ccc4n(CCN(C)C)c3nc2cc1C

>  <reported_metric>
CC50

>  <uom>
µM

>  <bound_type>
=

>  <reported>
85.5

$$$$

###

system: K-562; assay: Human tumor cell line growth assay (SRB); type: cell-based; settings: K562, Leukemia, K-562, 48 h, read-out: LC50 (the source's name)

>  <molecule>
COc1ccc2c(c1)c1nc3cc(C)c(C)cc3nc1n2CCN(C)C

>  <CC50>
> 100 µM

$$$$
>  <molecule>
Cc1cc2nc3c4ccccc4n(CCN(C)C)c3nc2cc1C [B220, reference compound]

>  <CC50>
> 100 µM

$$$$
>  <molecule>
Cc1cc2nc3c4cc(N)ccc4n(CCN(C)C)c3nc2cc1C

>  <CC50>
65.6 µM

$$$$
>  <molecule>
Cc1cc2nc3c4cc([N+](=O)[O-])ccc4n(CCN(C)C)c3nc2cc1C

>  <CC50>
> 100 µM

$$$$
>  <molecule>
Cc1cc2nc3c4cc(O)ccc4n(CCN(C)C)c3nc2cc1C

>  <CC50>
> 100 µM

$$$$

###

assay: Human tumor cell line growth assay (SRB); type: cell-based; settings: human, SK-MEL-5 cells (melanoma), SK-MEL-5, 48 h
hey, just use Y if measured LC50 (concentration killing 50% of tumour cells) at 48 h is less than 6 µM, otherwise N

>  <compound>
Cc1cc2nc3c4cc(N)ccc4n(CCN(C)C)c3nc2cc1C

>  <label_value>
Y

$$$$
>  <compound>
Cc1cc2nc3c4ccccc4n(CCN(C)C)c3nc2cc1C [B220, reference compound]

>  <label_value>
N

$$$$
>  <compound>
Cc1cc2nc3c4cc(O)ccc4n(CCN(C)C)c3nc2cc1C

>  <label_value>
Y

$$$$
>  <compound>
COc1ccc2c(c1)c1nc3cc(C)c(C)cc3nc1n2CCN(C)C

>  <label_value>
Y

$$$$
>  <compound>
Cc1cc2nc3c4cc([N+](=O)[O-])ccc4n(CCN(C)C)c3nc2cc1C

>  <label_value>
Y

$$$$

###

experiment: Human tumor cell line growth assay (SRB); type: cell-based; details: human, HOP-92 cells (NSCLC), HOP-92, 48 h
// reported LC50 at 48 h for each item listed

>  <molecule>
Cc1cc2nc3c4cc(N)ccc4n(CCN(C)C)c3nc2cc1C

>  <LC50 at 48 h>
> 100 µM

$$$$
>  <molecule>
Cc1cc2nc3c4cc(O)ccc4n(CCN(C)C)c3nc2cc1C

>  <LC50 at 48 h>
> 100 µM

$$$$
>  <molecule>
Cc1cc2nc3c4cc([N+](=O)[O-])ccc4n(CCN(C)C)c3nc2cc1C

>  <LC50 at 48 h>
> 100 µM

$$$$
>  <molecule>
Cc1cc2nc3c4ccccc4n(CCN(C)C)c3nc2cc1C [B220, reference compound]

>  <LC50 at 48 h>
> 100 µM

$$$$
>  <molecule>
COc1ccc2c(c1)c1nc3cc(C)c(C)cc3nc1n2CCN(C)C

>  <LC50 at 48 h>
6.08 µM

$$$$

###

// reported GI50 for each item listed
test system: SNB-19
reported_metric: GI50 (nM)

>  <compound>
Cc1cc2nc3c4cc(O)ccc4n(CCN(C)C)c3nc2cc1C

>  <reported_metric>
GI50

>  <uom>
nM

>  <reported>
423

$$$$
>  <compound>
Cc1cc2nc3c4ccccc4n(CCN(C)C)c3nc2cc1C [B220, reference compound]

>  <reported_metric>
GI50

>  <uom>
nM

>  <reported>
2330

$$$$
>  <compound>
Cc1cc2nc3c4cc(N)ccc4n(CCN(C)C)c3nc2cc1C

>  <reported_metric>
GI50

>  <uom>
nM

>  <reported>
767

$$$$
>  <compound>
Cc1cc2nc3c4cc([N+](=O)[O-])ccc4n(CCN(C)C)c3nc2cc1C

>  <reported_metric>
GI50

>  <uom>
nM

>  <reported>
493

$$$$
>  <compound>
COc1ccc2c(c1)c1nc3cc(C)c(C)cc3nc1n2CCN(C)C

>  <reported_metric>
GI50

>  <uom>
nM

>  <reported>
719

$$$$

###

test: Human tumor cell line growth assay (SRB); type: cell-based; details: human, OVCAR-5 cells (ovarian), OVCAR-5, 48 h, read-out: LC50
// reported CC50 at 48 h for each item listed

>  <molecule>
COc1ccc2c(c1)c1nc3cc(C)c(C)cc3nc1n2CCN(C)C

>  <uom>
µM

>  <bound_type>
=

>  <CC50 at 48 h>
5.28

$$$$
>  <molecule>
Cc1cc2nc3c4cc([N+](=O)[O-])ccc4n(CCN(C)C)c3nc2cc1C

>  <uom>
µM

>  <bound_type>
>

>  <CC50 at 48 h>
100

$$$$
>  <molecule>
Cc1cc2nc3c4cc(O)ccc4n(CCN(C)C)c3nc2cc1C

>  <uom>
µM

>  <bound_type>
>

>  <CC50 at 48 h>
100

$$$$
>  <molecule>
Cc1cc2nc3c4ccccc4n(CCN(C)C)c3nc2cc1C [B220, reference compound]

>  <uom>
µM

>  <bound_type>
=

>  <CC50 at 48 h>
33.4

$$$$
>  <molecule>
Cc1cc2nc3c4cc(N)ccc4n(CCN(C)C)c3nc2cc1C

>  <uom>
µM

>  <bound_type>
>

>  <CC50 at 48 h>
100

$$$$

###

system: SN12C

>  <molecule>
Cc1cc2nc3c4ccccc4n(CCN(C)C)c3nc2cc1C [B220, reference compound]

>  <target_or_system>
SN12C

>  <GI50 (nM)>
1080

$$$$
>  <molecule>
Cc1cc2nc3c4cc(O)ccc4n(CCN(C)C)c3nc2cc1C [JBD-139]

>  <target_or_system>
SN12C

>  <GI50 (nM)>
397

$$$$
>  <molecule>
Cc1cc2nc3c4cc([N+](=O)[O-])ccc4n(CCN(C)C)c3nc2cc1C [JBA-185]

>  <target_or_system>
SN12C

>  <GI50 (nM)>
479

$$$$
>  <molecule>
COc1ccc2c(c1)c1nc3cc(C)c(C)cc3nc1n2CCN(C)C [JBA-094]

>  <target_or_system>
SN12C

>  <GI50 (nM)>
503

$$$$
>  <molecule>
Cc1cc2nc3c4cc(N)ccc4n(CCN(C)C)c3nc2cc1C [JBD-136]

>  <target_or_system>
SN12C

>  <GI50 (nM)>
553

$$$$

###

// reported CC50 at 48 h for each item listed
assay: Human tumor cell line growth assay (SRB); format: cell-based; details: human, NCI-H322M cells (NSCLC), read-out: LC50
reported_metric: CC50 at 48 h

>  <compound>
Cc1cc2nc3c4ccccc4n(CCN(C)C)c3nc2cc1C [B220, reference compound]

>  <reported_metric>
CC50 at 48 h

>  <reported>
31.2 µM

$$$$
>  <compound>
Cc1cc2nc3c4cc([N+](=O)[O-])ccc4n(CCN(C)C)c3nc2cc1C [JBA-185]

>  <reported_metric>
CC50 at 48 h

>  <reported>
> 100 µM

$$$$
>  <compound>
Cc1cc2nc3c4cc(O)ccc4n(CCN(C)C)c3nc2cc1C [JBD-139]

>  <reported_metric>
CC50 at 48 h

>  <reported>
> 100 µM

$$$$
>  <compound>
COc1ccc2c(c1)c1nc3cc(C)c(C)cc3nc1n2CCN(C)C [JBA-094]

>  <reported_metric>
CC50 at 48 h

>  <reported>
6.41 µM

$$$$
>  <compound>
Cc1cc2nc3c4cc(N)ccc4n(CCN(C)C)c3nc2cc1C [JBD-136]

>  <reported_metric>
CC50 at 48 h

>  <reported>
> 100 µM

$$$$
